Target: Cytochrome P450 3A4 (Homo sapiens, UniProt P08684)
Sequence (P08684 whole entry): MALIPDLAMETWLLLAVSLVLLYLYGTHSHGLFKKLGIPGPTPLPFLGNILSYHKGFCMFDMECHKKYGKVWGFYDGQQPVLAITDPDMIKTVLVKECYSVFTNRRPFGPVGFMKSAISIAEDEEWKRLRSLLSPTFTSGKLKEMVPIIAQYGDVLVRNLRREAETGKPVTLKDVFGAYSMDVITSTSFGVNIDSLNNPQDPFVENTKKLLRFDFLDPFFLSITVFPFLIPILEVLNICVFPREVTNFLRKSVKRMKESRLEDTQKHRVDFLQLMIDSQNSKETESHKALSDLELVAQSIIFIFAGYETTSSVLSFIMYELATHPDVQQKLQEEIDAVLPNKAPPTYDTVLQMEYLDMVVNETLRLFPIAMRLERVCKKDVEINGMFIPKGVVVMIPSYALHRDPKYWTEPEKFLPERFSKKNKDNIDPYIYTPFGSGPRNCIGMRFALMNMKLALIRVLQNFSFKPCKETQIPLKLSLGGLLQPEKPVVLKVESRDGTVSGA
Conditions: Potency
For each entry below, report its AC50 value.

CC1CC2C3CCC4=CC(=O)C=C[C@@]4(C)[C@]3(F)C(O)C[C@]2(C)[C@]1(O)C(=O)COP(=O)(O)O (stereo not given in full)
39.8 µM (inconclusive)
COC(=O)N1CCc2cc(OC)c(OC)cc2C1Cc1ccc(OC)cc1 (stereo not given)
3.98 µM (inconclusive)
COC(=O)C(/C=C/C(C)Cc1cc(Br)cc(OCc2ccccc2)c1OC)OCc1ccccc1 (stereo not given)
3.16 µM (inconclusive)
COC(=O)[C@]1(C)CC[C@@]2(C)CC[C@@]3(C)C4=CCc5c(cc(O)c(O)c5C)[C@]4(C)CC[C@@]3(C)C2C1 (stereo not given in full)
39.8 µM (inconclusive)
COC(=O)NC(/C(C(=O)OC)=C(\C)NCc1ccccc1)c1ccccc1 (stereo not given)
3.98 µM (inconclusive)
CCCCNC(=O)C(c1ccc(OCC(=O)OC)c(C(=O)OC)c1)N(CCC1=CCCCC1)C(=O)CCCCCN1C(=O)NC(c2ccc(-c3ccccc3)cc2)C(C(=O)OCc2ccccc2)=C1C (stereo not given)
2.51 µM (inconclusive)
CC(=O)NNC(=O)N1Cc2ccccc2Oc2ccc(Cl)cc21
12.6 µM (inconclusive)
OCC1OC(c2ccc3c(c2)OCO3)C=CC1Oc1ccc(C2CCCC2)cc1 (stereo not given)
2 µM (inconclusive)
Cc1ccc2oc(=O)c3c4cc(O)c(O)c(C)c4oc3c2c1
12.6 µM (inconclusive)

# next compound below
Field request: AC50 | item: N#Cc1ccc(C23CC4(C2)[C@H](CN(Cc2ccc(-c5ccccc5)cc2)[C@@H]4c2ccccc2)C3c2ccccc2)cc1 (stereo not given in full)
15.8 µM (inconclusive)

====

Tested on: H4
Test: Luminescence Cell-Based Dose Response HTS to Identify Activators of 5'UTR Stem-Loop Driven Prion Protein mRNA Translation in H4 Neuroglioblastoma Cells. [Related pubchem assays: 1829 (Project Summary), 1814 (Primary HTS)]
Assay type: functional
Conditions: Homo sapiens
Calls of active or inactive are those of the source.
ATTRIBUTE_MEASURED: EC50

Go through the items and report each one's EC50.
1. COc1cc2sc3ccc(-c4ccc5[nH]ccc5c4)cc3c(=O)c2cc1OC
2. Cc1cc(/C(O)=C(/C([S-])=Nc2ccc(F)cc2)[n+]2ccccc2)c(C)n1-c1ccc(F)cc1
3. [O-][n+]1cc(-c2cc3ccccc3o2)[n+]([O-])c2c1CCCC2
4. O=C(CSc1cn(Cc2ccccc2)c2ccccc12)N1CCOCC1

1: > 120 µM (not active); 2: 21.1 µM (active); 3: 2.05 µM (active); 4: 16.8 µM (active)

Go through the items and report each one's EC50.
1. Cc1ccc2c(CC(=O)N3CCc4ccccc43)coc2c1
2. O=C(NCCc1ccccc1Cl)c1ccc2nc3ccccc3c(=O)n2c1

18.5 µM (active)
> 120 µM (not active)

====

Target: Voltage-dependent T-type calcium channel subunit alpha-1H (Homo sapiens, UniProt O95180);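 further: channel activity triggered by adding a high calcium stimulation buffer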
Sequence (O95180 whole entry): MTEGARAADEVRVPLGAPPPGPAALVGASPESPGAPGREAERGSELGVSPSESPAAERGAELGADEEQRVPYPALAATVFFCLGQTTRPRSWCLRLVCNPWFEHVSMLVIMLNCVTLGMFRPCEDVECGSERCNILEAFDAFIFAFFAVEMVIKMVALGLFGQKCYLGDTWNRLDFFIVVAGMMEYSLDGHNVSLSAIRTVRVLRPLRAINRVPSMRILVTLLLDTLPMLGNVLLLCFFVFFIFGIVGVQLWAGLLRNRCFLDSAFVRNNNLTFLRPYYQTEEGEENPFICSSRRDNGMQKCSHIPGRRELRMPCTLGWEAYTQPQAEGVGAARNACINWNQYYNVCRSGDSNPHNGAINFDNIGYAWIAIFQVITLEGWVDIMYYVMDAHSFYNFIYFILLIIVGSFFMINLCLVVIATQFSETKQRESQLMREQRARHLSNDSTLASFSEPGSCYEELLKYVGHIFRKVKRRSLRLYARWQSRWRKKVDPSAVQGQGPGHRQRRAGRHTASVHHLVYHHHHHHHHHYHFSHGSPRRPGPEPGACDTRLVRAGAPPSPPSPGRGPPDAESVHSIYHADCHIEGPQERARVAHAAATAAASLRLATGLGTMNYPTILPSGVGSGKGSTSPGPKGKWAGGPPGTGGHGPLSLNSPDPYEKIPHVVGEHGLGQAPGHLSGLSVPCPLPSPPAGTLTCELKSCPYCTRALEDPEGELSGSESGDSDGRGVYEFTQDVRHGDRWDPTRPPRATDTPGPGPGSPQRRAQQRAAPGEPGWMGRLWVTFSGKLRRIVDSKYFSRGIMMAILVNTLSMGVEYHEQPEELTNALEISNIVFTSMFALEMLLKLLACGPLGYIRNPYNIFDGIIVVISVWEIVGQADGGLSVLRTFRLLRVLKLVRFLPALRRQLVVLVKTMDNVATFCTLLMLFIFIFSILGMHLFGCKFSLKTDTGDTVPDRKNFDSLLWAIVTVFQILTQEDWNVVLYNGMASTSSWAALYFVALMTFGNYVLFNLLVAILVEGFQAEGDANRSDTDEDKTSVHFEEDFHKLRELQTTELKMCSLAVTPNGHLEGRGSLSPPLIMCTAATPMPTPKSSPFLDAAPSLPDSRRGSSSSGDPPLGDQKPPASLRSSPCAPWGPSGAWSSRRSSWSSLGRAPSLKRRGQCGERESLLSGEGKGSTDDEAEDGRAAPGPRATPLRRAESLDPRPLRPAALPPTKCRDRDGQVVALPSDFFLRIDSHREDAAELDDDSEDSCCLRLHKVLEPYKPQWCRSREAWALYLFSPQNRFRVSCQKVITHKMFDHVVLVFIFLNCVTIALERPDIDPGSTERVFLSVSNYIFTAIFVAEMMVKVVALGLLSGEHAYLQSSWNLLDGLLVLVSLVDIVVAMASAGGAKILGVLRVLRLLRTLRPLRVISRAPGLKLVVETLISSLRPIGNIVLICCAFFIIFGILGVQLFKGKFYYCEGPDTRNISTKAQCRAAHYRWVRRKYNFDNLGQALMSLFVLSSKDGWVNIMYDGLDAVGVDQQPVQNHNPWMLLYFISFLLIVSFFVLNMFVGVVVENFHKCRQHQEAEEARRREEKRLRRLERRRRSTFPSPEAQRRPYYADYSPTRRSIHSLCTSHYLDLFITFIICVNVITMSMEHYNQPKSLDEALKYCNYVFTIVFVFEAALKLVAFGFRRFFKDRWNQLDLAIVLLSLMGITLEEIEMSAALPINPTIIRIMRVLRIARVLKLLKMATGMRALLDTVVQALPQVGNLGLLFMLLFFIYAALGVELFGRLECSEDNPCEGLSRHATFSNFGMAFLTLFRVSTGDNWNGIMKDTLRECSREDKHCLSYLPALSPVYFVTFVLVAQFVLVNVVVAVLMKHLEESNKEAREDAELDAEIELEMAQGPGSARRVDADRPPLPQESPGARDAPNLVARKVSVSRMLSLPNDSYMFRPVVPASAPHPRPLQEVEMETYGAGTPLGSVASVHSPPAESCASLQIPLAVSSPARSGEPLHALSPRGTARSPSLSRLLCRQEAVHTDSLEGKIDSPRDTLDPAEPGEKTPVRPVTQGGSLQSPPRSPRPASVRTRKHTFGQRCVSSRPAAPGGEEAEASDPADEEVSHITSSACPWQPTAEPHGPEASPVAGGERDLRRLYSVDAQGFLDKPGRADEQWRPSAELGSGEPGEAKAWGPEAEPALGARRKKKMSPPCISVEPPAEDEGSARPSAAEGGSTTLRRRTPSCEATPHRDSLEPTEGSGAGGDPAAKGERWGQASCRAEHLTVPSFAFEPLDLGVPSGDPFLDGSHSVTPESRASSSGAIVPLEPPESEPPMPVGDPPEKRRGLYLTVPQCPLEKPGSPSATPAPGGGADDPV
Type: functional
Calls of active or inactive are those of the source.
For each entry below, report its EC50 value.

Example compounds with recorded EC50:
O=C(Nc1ccc(S(=O)(=O)N2CCCCCC2)cc1)c1ccc(Br)o1
7.13 µM (active)
Cc1cccc(NC(=O)CNc2cc(C)ccc2C)c1
15.2 µM (active)
CC/C(=N\n1nnnc1Nc1ccccc1)c1ccccc1
5.34 µM (active)

# next compound below
Field request: EC50 | item: CC(C)(C)n1nnnc1C(c1ccc(C(F)(F)F)cc1)N(Cc1ccc(F)cc1)Cc1ccco1 (centres undefined)
2.84 µM (active)

====

Biological target: Microphthalmia-associated transcription factor (Homo sapiens, UniProt O75030)
Sequence (O75030 whole entry): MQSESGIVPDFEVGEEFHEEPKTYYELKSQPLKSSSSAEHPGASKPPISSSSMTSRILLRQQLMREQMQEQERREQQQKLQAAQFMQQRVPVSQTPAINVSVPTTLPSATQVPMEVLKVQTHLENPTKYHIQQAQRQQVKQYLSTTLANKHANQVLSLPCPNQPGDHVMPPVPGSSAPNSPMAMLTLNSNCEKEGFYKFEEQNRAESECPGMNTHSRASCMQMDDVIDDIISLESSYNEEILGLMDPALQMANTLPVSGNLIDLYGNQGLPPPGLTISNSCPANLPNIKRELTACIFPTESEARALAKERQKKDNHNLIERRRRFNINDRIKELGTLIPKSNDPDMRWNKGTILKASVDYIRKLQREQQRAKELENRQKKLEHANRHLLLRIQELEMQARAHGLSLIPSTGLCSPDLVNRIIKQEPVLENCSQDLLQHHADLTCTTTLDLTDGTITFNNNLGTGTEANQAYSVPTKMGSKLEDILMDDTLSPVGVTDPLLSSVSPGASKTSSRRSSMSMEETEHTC
Experiment: reducers of TRPM1 reporter luminescence, concentration series – cell-based, SK-MEL-5, cherry-picked, set 3, MITF inhibitor project, dose response (AID 493073);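 further: SK-MEL-5 melanoma cells with luciferase driven by the MITF target TRPM1 promoter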
Assay type: functional
Activity calls are given as the source filed them.
For each entry below, report its AC50 value.

Example compounds with recorded AC50:
O=S(=O)(CC(CN1CCCCC1)N1CCCCC1)c1ccc2ccccc2c1 (stereo unspecified)
12.5 µM (active)
COc1ccccc1NS(=O)(=O)c1cccc(C(=O)N/N=C/c2ccc([N+](=O)[O-])o2)c1
4.3 µM (active)
CC(C)[C@H](NC(=O)OC(C)(C)C)c1nnc(S(=O)(=O)Cc2c(F)cccc2Cl)o1
11.6 µM (active)
Cc1cc(C(=O)CSc2nnc3ccccn23)c(C)n1-c1ccccc1
2.08 µM (active)
Cc1ccc2c(C(=O)CCl)c(C)[nH]c2c1
8.17 µM (active)

Field request: AC50 | item: CCOC(=O)COc1ccc2ccccc2c1/C=C/[N+](=O)[O-]
8.17 µM (active)

====

Biological target: Protein RecA (Mycobacterium tuberculosis)
Sequence (P9WHJ3 whole entry): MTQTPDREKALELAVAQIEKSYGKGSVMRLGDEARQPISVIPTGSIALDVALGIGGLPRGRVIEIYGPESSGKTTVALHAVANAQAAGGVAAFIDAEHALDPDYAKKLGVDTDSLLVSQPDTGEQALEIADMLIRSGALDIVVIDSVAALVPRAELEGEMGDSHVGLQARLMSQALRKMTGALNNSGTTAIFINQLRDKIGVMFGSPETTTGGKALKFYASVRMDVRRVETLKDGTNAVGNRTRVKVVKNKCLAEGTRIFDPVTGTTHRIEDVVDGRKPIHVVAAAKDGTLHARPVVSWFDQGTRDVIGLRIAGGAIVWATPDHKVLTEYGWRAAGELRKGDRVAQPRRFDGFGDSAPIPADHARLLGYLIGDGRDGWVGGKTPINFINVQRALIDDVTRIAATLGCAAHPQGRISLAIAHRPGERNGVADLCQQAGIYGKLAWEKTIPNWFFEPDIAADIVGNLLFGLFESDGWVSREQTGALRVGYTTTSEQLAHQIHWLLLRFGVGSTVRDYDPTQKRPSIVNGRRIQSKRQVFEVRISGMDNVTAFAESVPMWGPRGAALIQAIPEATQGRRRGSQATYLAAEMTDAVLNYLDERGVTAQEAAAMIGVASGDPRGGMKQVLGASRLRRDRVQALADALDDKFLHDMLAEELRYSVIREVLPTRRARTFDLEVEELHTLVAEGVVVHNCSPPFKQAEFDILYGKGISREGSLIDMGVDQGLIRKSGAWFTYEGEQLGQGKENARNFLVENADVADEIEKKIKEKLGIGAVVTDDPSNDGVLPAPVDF
Test: Fluorescence Cell-Free Homogeneous Dose Retest to Identify Inhibitors of RecA-Intein Splicing Activity. [Related pubchem assays (depositor defined):AID2097, AID2223, AID489010, AID492950]
Assay type: functional
The source made the active and inactive calls.
Choose one outcome from this list and give only that: Yes for active, No for inactive

Please review the following examples before continuing.
O=C1C(Cl)=C(Nc2ccc3cn[nH]c3c2)C(=O)c2ccccc21
Yes
CC(C)[C@H](NC(=O)OC(C)(C)C)c1nnc(S(=O)(=O)Cc2c(F)cccc2Cl)o1
Yes
O=C(CNC(=O)c1ccccc1)N/N=C/c1ccc([N+](=O)[O-])o1
No

Can you look up the reported call for O=C(OCn1ncc(Cl)c(Cl)c1=O)c1ccc(C(F)(F)F)cc1 for me?
Yes

Can you look up the reported call for COc1cc(C(c2c(C)n[nH]c2O)c2c(C)n[nH]c2O)cc(Br)c1OC for me?
Yes

Can you look up the reported call for O=[N+]([O-])c1c(NCCO)cc(Sc2nc3ccccc3s2)c2nonc12 for me?
Yes

Can you look up the reported call for CCOc1cc(/C=C2/C(=O)N(c3ccccc3)N=C2C)ccc1OC(=O)c1ccco1 for me?
Yes

Can you look up the reported call for Cc1n[nH]c2c1C(c1ccc(Cl)cc1)C(C#N)=C(N)O2 (stereo not given) for me?
Yes

Can you look up the reported call for CCOC(=O)C1=C(c2ccccc2)N=C(N)NC1c1ccc(OCc2ccc(Cl)cc2)c(OC)c1 (stereo not given) for me?
Yes

====

The next entries give measured AC50 for Cytochrome P450 3A4 (Homo sapiens, UniProt P08684).

Example compounds with recorded AC50:
Cc1cccc(C)c1NC(=O)c1cc2c(=O)c3ccccc3oc2nc1C(F)(F)F
0.0501 µM (inconclusive)
CC(=O)NNC(=O)N1Cc2ccccc2Oc2ccc(Cl)cc21
20 µM (inconclusive)
O=C(Cc1ccccc1)NCCSCc1ccc(Cl)cc1
14.1 µM (inconclusive)

Go through the items and report each one's AC50.
1. C/C(=N\Nc1nnc(-c2ccccc2)c(-c2ccccc2)n1)c1cccc([N+](=O)[O-])c1
2. C/C(Cl)=C\Cn1c(N2CCCC2)nc2c1c(=O)[nH]c(=O)n2C
3. CN1CC[C@@]2(CCCN(C(=O)c3cccn3C)C2)C1
4. CC(=O)C1=C(O)C=C(c2ccco2)CC1c1ccco1 (stereo unspecified)
5. CC(=O)c1[nH]c(C)c(C(C)=O)c1C
6. CCNc1ncc2nc(-c3ccccc3)c(=O)n(CCOC)c2n1

35.5 µM (inconclusive)
15.8 µM (inconclusive)
7.94 µM (inconclusive)
20 µM (inconclusive)
20 µM (inconclusive)
31.6 µM (inconclusive)
